Just for reference, paper PMC8515607 is where these values come from.

# Test system: LoVo/DX
# Test: cells
# Assay type: cell-based, human
# Assay setup: Homo sapiens, LoVo/DX, 72 h, read-out: LoVo/DX IC50 (nM), 72 h exposure, SRB, mean ± SD
Property label: IC50 (nM)
Report as a plain number; the unit nM is understood.

Given item CCCc1cn([C@H]2CCc3cc(OC)c(OC)c(OC)c3-c3ccc(NC)c(=O)cc32)nn1 , the value recorded as its IC50 is 85

Given item CNc1ccc2c(cc1=O)[C@@H](NC(C)=O)CCc1cc(OC)c(OC)c(OC)c1-2 , the value recorded as its IC50 is 230

Given item CCCCCCCCCCCCCCCC(=O)OCc1cn([C@H]2CCc3cc(OC)c(OC)c(OC)c3-c3ccc(NC)c(=O)cc32)nn1 , the value recorded as its IC50 is 3300

Given item CCOC(=O)c1nnn([C@H]2CCc3cc(OC)c(OC)c(OC)c3-c3ccc(NC)c(=O)cc32)c1C(=O)OCC , the value recorded as its IC50 is 580

Given item CNc1ccc2c(cc1=O)[C@@H](n1cc(CO)nn1)CCc1cc(OC)c(OC)c(OC)c1-2 , the value recorded as its IC50 is 1500

---

Task for the reader: assign each of the following compounds its reported log10 of IC50.
# Tested on: A549
# Test: cells
# Assay type: cell-based, human
# Assay setup: Homo sapiens, A549, 72 h, read-out: A549 IC50 (nM), 72 h exposure, SRB, mean ± SD
All values: base-10 log of IC50 in nM.

Given item CNc1ccc2c(cc1=O)[C@@H](n1cc(COC(=O)CCNC(=O)OC(C)(C)C)nn1)CCc1cc(OC)c(OC)c(OC)c1-2 [Compound 26] , the value recorded as its log10 of IC50 is 0.38

Given item CCCCCCCCCCCCCCCC(=O)OCc1cn([C@H]2CCc3cc(OC)c(OC)c(OC)c3-c3ccc(NC)c(=O)cc32)nn1 [Compound 24] , the value recorded as its log10 of IC50 is 1.20

Given item CCCCCCCCCCCCCCCC(=O)NCc1cn([C@H]2CCc3cc(OC)c(OC)c(OC)c3-c3ccc(NC)c(=O)cc32)nn1 [Compound 30] , the value recorded as its log10 of IC50 is 1.20

Given item CNc1ccc2c(cc1=O)[C@@H](n1cc(-c3ccccc3)nn1)CCc1cc(OC)c(OC)c(OC)c1-2 [Compound 14] , the value recorded as its log10 of IC50 is 1.11

Given item CNc1ccc2c(cc1=O)[C@@H](n1cc(COC(=O)c3ccncc3)nn1)CCc1cc(OC)c(OC)c(OC)c1-2 [Compound 28] , the value recorded as its log10 of IC50 is 0.98

Given item CNc1ccc2c(cc1=O)[C@@H](n1cc(CNC(=O)CCCCCl)nn1)CCc1cc(OC)c(OC)c(OC)c1-2 [Compound 32] , the value recorded as its log10 of IC50 is 0.64

Given item CNc1ccc2c(cc1=O)[C@@H](n1cc(CNC(=O)Oc3ccccc3)nn1)CCc1cc(OC)c(OC)c(OC)c1-2 [Compound 43] , the value recorded as its log10 of IC50 is 0.61

Given item CNc1ccc2c(cc1=O)[C@@H](n1cc(CCO)nn1)CCc1cc(OC)c(OC)c(OC)c1-2 [Compound 11] , the value recorded as its log10 of IC50 is 1.15

Given item CNc1ccc2c(cc1=O)[C@@H](n1cc(C(C)(C)O)nn1)CCc1cc(OC)c(OC)c(OC)c1-2 [Compound 12] , the value recorded as its log10 of IC50 is 1.57

Given item CNc1ccc2c(cc1=O)[C@@H](n1cc(CNC(=O)C(C)C)nn1)CCc1cc(OC)c(OC)c(OC)c1-2 [Compound 29] , the value recorded as its log10 of IC50 is 1.08

Given item CNc1ccc2c(cc1=O)[C@@H](n1nnc(C(=O)O)c1C(=O)O)CCc1cc(OC)c(OC)c(OC)c1-2 [Compound 23] , the value recorded as its log10 of IC50 is 3.00

Given item CNc1ccc2c(cc1=O)[C@@H](n1ccnn1)CCc1cc(OC)c(OC)c(OC)c1-2 [Compound 5] , the value recorded as its log10 of IC50 is 0.79

Given item CNc1ccc2c(cc1=O)[C@@H](n1cc(CNC(=O)C(Cl)Cl)nn1)CCc1cc(OC)c(OC)c(OC)c1-2 [Compound 31] , the value recorded as its log10 of IC50 is 0.52
